Where do the numbers come from? From paper PMC6261661.

target: mMC3R (Mus musculus); test: Antagonist Schild analysis against agonist MTII at mMC3R; type: cell-based; conditions: Ant = antagonist; SA = some stimulatory activity at 100 µM
Sequence (P33033 whole entry): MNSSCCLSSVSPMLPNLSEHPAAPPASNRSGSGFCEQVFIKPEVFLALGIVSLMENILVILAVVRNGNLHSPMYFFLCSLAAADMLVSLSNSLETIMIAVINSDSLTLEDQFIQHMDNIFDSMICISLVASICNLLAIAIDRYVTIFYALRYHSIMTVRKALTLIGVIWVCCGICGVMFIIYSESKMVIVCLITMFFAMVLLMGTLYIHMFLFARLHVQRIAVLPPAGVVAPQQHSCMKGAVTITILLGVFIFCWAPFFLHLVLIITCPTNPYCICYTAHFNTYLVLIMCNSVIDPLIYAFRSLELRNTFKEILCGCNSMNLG
Square brackets hold non-standard residues; d marks the D form. Peptide text beside a SMILES is read from it. Bip = N[C@@H](Cc1ccc(-c2ccccc2)cc1)C(=O)O; dBip = N[C@H](Cc1ccc(-c2ccccc2)cc1)C(=O)O; dPhe(4-I) = N[C@H](Cc1ccc(I)cc1)C(=O)O; 2Nal = N[C@@H](Cc1ccc2ccccc2c1)C(=O)O; Bta = N[C@@H](Cc1csc2ccccc12)C(=O)O; 4Pal = N[C@@H](Cc1ccncc1)C(=O)O
observable: mMC3R pharmacology class printed in Fold Diff column (Ant, SA)

Examples from the recorded data:
compound	value.measured
CCCCCCCC(=O)N[C@@H](Cc1c[nH]cn1)C(=O)N[C@H](Cc1ccc(I)cc1)C(=O)N[C@@H](CCCNC(=N)N)C(=O)N[C@@H](Cc1c[nH]c2ccccc12)C(N)=O [Peptide 6, Octanoyl-His-(pI)DPhe-Arg-Trp-NH2]	Ant
CC(=O)N[C@@H](Cc1c[nH]cn1)C(=O)N[C@H](Cc1ccc(I)cc1)C(=O)N[C@@H](CCCNC(=N)N)C(=O)N[C@@H](Cc1csc2ccccc12)C(N)=O [Peptide 30, Ac-His-(pI)DPhe-Arg-3Bal-NH2] (Ac-H[dPhe(4-I)]R[Bta]-NH2)	SA Ant
CC(=O)N[C@@H](Cc1c[nH]cn1)C(=O)N[C@H](Cc1ccc(-c2ccccc2)cc1)C(=O)N[C@@H](CCCNC(=N)N)C(=O)N[C@@H](Cc1csc2ccccc12)C(N)=O [Peptide 34, Ac-His-DBip-Arg-3Bal-NH2] (Ac-H[dBip]R[Bta]-NH2)	SA Ant
CC(=O)N[C@@H](Cc1c[nH]cn1)C(=O)N[C@H](Cc1ccc(-c2ccccc2)cc1)C(=O)N[C@@H](CCCNC(=N)N)C(=O)N[C@@H](Cc1ccc(-c2ccccc2)cc1)C(N)=O [Peptide 33, Ac-His-DBip-Arg-Bip-NH2] (Ac-H[dBip]R[Bip]-NH2)	Ant
CC(=O)N[C@@H](Cc1ccncc1)C(=O)N[C@H](Cc1ccc(-c2ccccc2)cc1)C(=O)N[C@@H](CCCNC(=N)N)C(=O)N[C@@H](Cc1c[nH]c2ccccc12)C(N)=O [Peptide 22, Ac-4PAL-DBip-Arg-Trp-NH2] (Ac-[4Pal][dBip]RW-NH2)	SA Ant

I am curious: what mMC3R pharmacology class printed in Fold Diff column (Ant, SA) value has been reported for CC(=O)N[C@@H](Cc1c[nH]cn1)C(=O)N[C@H](Cc1ccc(-c2ccccc2)cc1)C(=O)N[C@@H](CCCNC(=N)N)C(=O)N[C@@H](Cc1ccc2ccccc2c1)C(N)=O [Peptide 36, Ac-His-DBip-Arg-Nal(2’)-NH2] (Ac-H[dBip]R[2Nal]-NH2) ?
SA Ant

I am curious: what mMC3R pharmacology class printed in Fold Diff column (Ant, SA) value has been reported for CC(=O)N[C@@H](Cc1ccncc1)C(=O)N[C@H](Cc1ccc(I)cc1)C(=O)N[C@@H](CCCNC(=N)N)C(=O)N[C@@H](Cc1c[nH]c2ccccc12)C(N)=O [Peptide 16, Ac-4PAL-(pI)DPhe-Arg-Trp-NH2] (Ac-[4Pal][dPhe(4-I)]RW-NH2) ?
Ant
